Molecular target: T1, human CD228 (R&D Systems Custom02; Lot DCWR021505A) (human, UniProt P08582 20-709, limits assumed)
T1 construct: Bought custom protein coated on ELISA plates; also called CD228 protein; melanotransferrin
T1 sequence (looked up): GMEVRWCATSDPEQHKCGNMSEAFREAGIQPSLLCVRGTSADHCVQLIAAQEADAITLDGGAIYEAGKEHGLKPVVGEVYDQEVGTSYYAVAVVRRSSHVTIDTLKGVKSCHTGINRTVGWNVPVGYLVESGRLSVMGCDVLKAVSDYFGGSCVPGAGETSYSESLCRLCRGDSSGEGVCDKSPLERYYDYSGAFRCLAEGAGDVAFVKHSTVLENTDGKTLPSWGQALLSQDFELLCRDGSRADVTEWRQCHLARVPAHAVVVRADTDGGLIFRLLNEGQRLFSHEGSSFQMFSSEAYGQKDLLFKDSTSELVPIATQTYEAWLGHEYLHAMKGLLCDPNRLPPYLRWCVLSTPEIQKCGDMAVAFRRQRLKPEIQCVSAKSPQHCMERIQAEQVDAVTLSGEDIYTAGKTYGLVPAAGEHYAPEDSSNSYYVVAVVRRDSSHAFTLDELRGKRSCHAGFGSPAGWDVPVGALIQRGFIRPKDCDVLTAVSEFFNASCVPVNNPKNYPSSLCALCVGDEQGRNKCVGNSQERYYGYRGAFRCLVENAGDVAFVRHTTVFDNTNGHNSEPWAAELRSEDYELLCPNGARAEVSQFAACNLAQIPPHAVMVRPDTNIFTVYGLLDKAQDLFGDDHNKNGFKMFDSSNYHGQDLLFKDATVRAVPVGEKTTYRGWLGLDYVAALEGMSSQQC
Experiment: ELISA, coated human CD228, pH 6.30
Measure: EC50 (nM)
# number only, unit nM dropped from output

QUERY: // lookup EC50 for hL49_34_Gln (antibody, V domains shown, hL49 variant with the light chain CDR-L1 histidine 34 changed to glutamine) VH: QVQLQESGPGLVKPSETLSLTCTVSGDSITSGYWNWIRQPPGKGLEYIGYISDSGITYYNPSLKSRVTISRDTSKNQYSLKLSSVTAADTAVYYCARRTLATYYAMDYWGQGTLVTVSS VL: DFVMTQSPLSLPVTLGQPASISCRASQSLVHSDGNTYLQWYQQRPGQSPRLLIYRVSNRFSGVPDRFSGSGSGTDFTLKISRVEAEDVGVYYCSQSTHVPPTFGQGTKLEIK
RESULT: 23.4

QUERY: // lookup EC50 for hL49_3X_Tyr (antibody, V domains shown, hL49 triple mutant: all three light chain CDR histidines changed to tyrosine) VH: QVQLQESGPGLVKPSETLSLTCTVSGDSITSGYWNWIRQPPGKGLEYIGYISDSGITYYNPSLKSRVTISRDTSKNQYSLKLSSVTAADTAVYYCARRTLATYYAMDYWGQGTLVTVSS VL: DFVMTQSPLSLPVTLGQPASISCRASQSLVYSDGNTYLYWYQQRPGQSPRLLIYRVSNRFSGVPDRFSGSGSGTDFTLKISRVEAEDVGVYYCSQSTYVPPTFGQGTKLEIK
RESULT: 74.6
